This collection of values is drawn from the Deep4Chem optical property database.

test: solvent given as SMILES; conditions: in ClCCl
The label is Fulfilled for absorption maximum below 400 nm and Not fulfilled for absorption maximum equal to or exceeding 400 nm.

INPUT: Given Oc1cc(-c2cccs2)ccc1-c1nc2ccccc2s1 , is recorded absorption maximum strictly lower than 400 nm?
OUTPUT: Fulfilled

INPUT: is_below(absorption maximum, 400 nm) for COc1ccc(-c2c3cc4ccccc4cc3c(-c3ccc(OC)cc3)c3cc4ccccc4cc23)cc1 ?
OUTPUT: Not fulfilled

INPUT: Is it true that absorption maximum reported for CC(C)(C)c1ccc(-c2cc(-c3ccc(-c4cc(-c5ccc(C(C)(C)C)cc5)c(C(=O)N5CCOCC5)s4)s3)sc2C(=O)N2CCOCC2)cc1 is less than 400 nm?
OUTPUT: Fulfilled

INPUT: Dear colleague, could you confirm whether absorption maximum of CN(C)c1ccc(/C=C/c2cnc(/C=C/c3ccc(C#N)cc3)o2)cc1 falls below 400 nm? Thanks.
OUTPUT: Not fulfilled

INPUT: Just wondering, is absorption maximum of CNC(=O)[C@H](C)NC(=O)c1cccc2c1C#Cc1c(N)cccc1OCCCO2 below 400 nm?
OUTPUT: Fulfilled

INPUT: Answer whether the compound COc1ccc2c(c1)sc1[n+]2[B-](F)(F)OC(c2ccc(N(C)C)cc2)=N1 has absorption maximum strictly less than 400 nm
OUTPUT: Not fulfilled

INPUT: Quick check: absorption maximum of Cc1ccc(C2=[N+]3C(=Nc4c5ccccc5c(-c5ccc(C)s5)n4[B-]3(F)F)c3ccccc32)s1 under 400 nm?
OUTPUT: Not fulfilled

INPUT: Confirm or reject: absorption maximum of C[Si]1(C)c2ccc(-c3cccs3)cc2C=Cc2cc(-c3cccs3)ccc21 lies strictly below 400 nm
OUTPUT: Fulfilled

INPUT: In the record for CC1=C(C#Cc2ccc([Si](c3ccccc3)(c3ccccc3)c3ccccc3)cc2)C(C)=[N+]2C1=C(c1ccccc1)c1c(C)c(C#Cc3ccc([Si](c4ccccc4)(c4ccccc4)c4ccccc4)cc3)c(C)n1[B-]2(F)F , is absorption maximum less than 400 nm?
OUTPUT: Not fulfilled

INPUT: Please indicate whether the reported absorption maximum of COc1ccc2cc(C#CC3=C4CCc5ccccc5C4=[O+][B-](F)(F)O3)ccc2c1 is strictly below 400 nm.
OUTPUT: Not fulfilled

INPUT: Criterion: absorption maximum strictly below 400 nm. Is it met by CCn1c2ccccc2c2cc(-c3cc(-c4ccc5c(c4)c4ccccc4n5CC)nc(N4CCCCC4)n3)ccc21 ?
OUTPUT: Fulfilled

INPUT: # strict comparison: is reported absorption maximum < 400 nm? input = C(#Cc1ccc(-n2c3ccccc3c3ccccc32)cc1)c1ccc(-c2nc(-c3ccc(C#Cc4ccc(-n5c6ccccc6c6ccccc65)cc4)cc3)nc(-c3ccc(C#Cc4ccc(-n5c6ccccc6c6ccccc65)cc4)cc3)n2)cc1
OUTPUT: Fulfilled

INPUT: Problem: For the compound CCCCc1ccc2ccc3c(CCCC)ccc4ccc1c2c43 , is absorption maximum under 400 nm?
OUTPUT: Fulfilled

INPUT: For this compound, is absorption maximum lower than 400 nm? COc1cc(OC)cc(C2=C3C(C)=C(I)C(C)=[N+]3[B-](F)(F)n3c(/C=C/c4c[nH]c5ccccc45)c(I)c(C)c32)c1
OUTPUT: Not fulfilled

* * *

assay: solvent given as SMILES; conditions: in CCOC(C)=O
What absorption maximum was measured for each of the following?
Note: unit nm is implicit; provide only the numeric part.

INPUT: For the compound shown here, Cc1ccc(C2=C3C=CC(C#Cc4ccccc4)=[N+]3[B-](F)(F)n3c(C#Cc4ccccc4)ccc32)cc1 , give the reported absorption maximum.
OUTPUT: 607

INPUT: // query absorption maximum value for entry N#C/C(=C\c1cn(-c2ccccc2)nc1-c1ccc([N+](=O)[O-])cc1)c1nc2ccccc2s1
OUTPUT: 375

INPUT: Any idea what its absorption maximum is? The compound is COC(=O)C[C@H](Cc1c[nH]c2ccccc12)NC(=O)[C@H](CC(=O)N[C@@H](CC1=CCc2ccccc21)C(=O)OC)NC(=O)OC(C)(C)C
OUTPUT: 280

INPUT: Entry CC(C)(C)c1cc2ccc3cc(C(C)(C)C)cc4c3c2c(c1)c(=O)n1c4nc2c3ccccc3c3ccccc3c21 : reported absorption maximum = ?
OUTPUT: 366

* * *

test: solvent given as SMILES; details: in C1COCCO1
readout.name: absorption maximum (nm)
Only the number, expressed in nm, is required.

INPUT: // query absorption maximum value for entry N#C/C(=C\c1cn(-c2ccccc2)nc1-c1ccc([N+](=O)[O-])cc1)c1nc2ccccc2s1
OUTPUT: 379

INPUT: Sample COC(=O)c1ccc(/C=C2\C=C(c3ccccc3)NC2=O)cc1 — what was its absorption maximum?
OUTPUT: 437

INPUT: Dear colleague, I am looking for the recorded absorption maximum of the following compound: O=C(O)c1cc2c(ccc3ccccc32)oc1=O
OUTPUT: 372

INPUT: Given COC(=O)C(Cc1ccc2oc(-c3ccc(N(C)C)cc3)nc2c1)NC(=O)OC(C)(C)C (stereo unspecified) , state its recorded absorption maximum.
OUTPUT: 340.8

INPUT: Using the record for N#Cc1ccc(N)c2nonc12 , report its absorption maximum.
OUTPUT: 418

INPUT: Entry under review: COc1ccc(C(=O)/C=C2\C(=O)Nc3ccccc32)cc1 . Reported absorption maximum?
OUTPUT: 337

INPUT: absorption maximum lookup needed for Cc1ccc(C2=C3C=CC(C#Cc4ccccc4)=[N+]3[B-](F)(F)n3c(Cl)ccc32)cc1 , thanks.
OUTPUT: 562

INPUT: For COC(=O)c1ccc(/C=C2\C=C(c3ccc(C#N)cc3)N(CC(C)C)C2=O)cc1 , what is its reported absorption maximum?
OUTPUT: 438

INPUT: Tell me the measured absorption maximum of COc1ccc(C2=C/C(=C\c3ccc([N+](=O)[O-])cc3)C(=O)N2CC(C)C)cc1 , please.
OUTPUT: 465

INPUT: So what does the record say about absorption maximum for N#Cc1cccc2cc[nH]c12 ?
OUTPUT: 307.36

INPUT: Request the reported absorption maximum associated with COc1cc(/C=C2/SC(=O)NC2=O)ccc1O
OUTPUT: 358

* * *

assay: solvent given as SMILES; conditions: in C1CCCCC1
Assignment: determine reported absorption maximum for the given compounds.
Just the number in nm, nothing appended.

INPUT: Requested read-out: absorption maximum. Entry: C(=C\c1ccnc2ccccc12)/c1ccc(/C=C/c2ccnc3ccccc23)cc1
OUTPUT: 364

INPUT: State the recorded absorption maximum for this entry: Cc1cc(C)c(B2c3cc(C(C)(C)C)cc4ccc5ccc6cc(C(C)(C)C)cc2c6c5c34)c(C)c1
OUTPUT: 427

INPUT: Requested field: absorption maximum. Item: CCC(C)(C)c1ccc2c(c1)C(CC)(CC)c1cc(-c3ccc4c(c3)C(CC)(CC)c3cc(C(C)(C)CC)ccc3-4)ccc1-2
OUTPUT: 331

INPUT: Can you look up the measured absorption maximum of c1ccc(-c2cc3cccc[n+]3[b-]3c(-c4cccc5[b-]4[n+]4ccccc4cc5-c4ccccc4)cccc32)cc1 for me?
OUTPUT: 449

INPUT: Look at this compound and give its reported absorption maximum. Cc1cc(C)c(C2=C3C=C(c4ccc(C(C)(C)C)cc4)C(c4ccc(C(C)(C)C)cc4)=[N+]3[B-](F)(F)n3c2cc(-c2ccc(C(C)(C)C)cc2)c3-c2ccc(C(C)(C)C)cc2)c(C)c1
OUTPUT: 602

INPUT: What does the data say about its absorption maximum? Entry: CC1=[N+]2C(=C(c3ccc(C#N)cc3)c3ccc(C)n3[B-]2(F)F)C=C1
OUTPUT: 517

INPUT: absorption maximum for Cc1ccc(/C=C/c2ccccc2-[n+]2cc([O-])on2)cc1 ?
OUTPUT: 310

INPUT: Reported absorption maximum for CC(=O)Nc1ccccc1C(=O)OC1CC(C)CCC1C(C)C (stereo not given) : what is it?
OUTPUT: 315

INPUT: May I ask what absorption maximum has been recorded for C(#Cc1cccc2cc(-c3ccccc3)c3cc(-c4cc[b-]5c(c4)c(-c4ccccc4)cc4cccc(C#Cc6ccccc6)[n+]54)cc[b-]3[n+]12)c1ccccc1 ?
OUTPUT: 546

INPUT: Name the recorded absorption maximum for Cc1cc(C)c(B2c3cc(C(C)(C)C)ccc3-c3c(-c4ccccc4)ccc4cc(C(C)(C)C)cc2c34)c(C)c1 .
OUTPUT: 406

INPUT: Which absorption maximum value is on record for CCCC1(CCC)c2ccccc2-c2ccc(-c3ccc4c(c3)C(CCC)(CCC)c3cc(-c5ccc6c(c5)C(CCC)(CCC)c5cc(-c7ccc8c(c7)C(CCC)(CCC)c7ccccc7-8)ccc5-6)ccc3-4)cc21 ?
OUTPUT: 360

INPUT: Consider the compound CC1=[N+]2C(=C(c3ccc(C=O)cc3)c3ccc(C)n3[B-]2(F)F)C=C1c1cc2n(c1)[B-](F)(F)[N+]1=CC=CC1=C2c1c(C)cc(C)cc1C and give its measured absorption maximum.
OUTPUT: 604.5

INPUT: What value of measured absorption maximum is listed for CC1=C(C(C)(C)C)C(C)=[N+]2C1=C(C)c1c(C)c(C(C)(C)C)c(C)n1[B-]2(F)F ?
OUTPUT: 529

INPUT: For N#C[Se]CCCCCOc1ccc2ccc(=O)oc2c1 , what is its reported absorption maximum?
OUTPUT: 321

INPUT: Reported absorption maximum for CCCC1(CCC)c2cc(-c3ccc(OC)cc3)ccc2-c2ccc(-c3ccc4c(c3)C(CCC)(CCC)c3cc(-c5ccc(OC)cc5)ccc3-4)cc21 : what is it?
OUTPUT: 350

INPUT: Find the recorded absorption maximum belonging to Cc1cccc(NC(=O)c2ccc(N(C)C)cc2)c1 and report it.
OUTPUT: 306

INPUT: What value of measured absorption maximum is listed for N#Cc1nc2c(nc1C#N)C1c3ccc(N(c4ccccc4)c4ccccc4)cc3C2c2ccc(N(c3ccccc3)c3ccccc3)cc21 ?
OUTPUT: 408

INPUT: Query: absorption maximum; subject: COc1ccc(C2=C(c3ccc(OC)cc3)C(C)(C)c3cc(OC)ccc32)cc1
OUTPUT: 296

INPUT: Query (compound): CC1(C)CCc2c(c3ccccc3c3nc4c(nc23)c2c(c3ccccc34)OC(C)(C)CC2)O1 ; field requested: absorption maximum
OUTPUT: 431.03

INPUT: Bench note: what absorption maximum did O=C1Cc2cc3c(cc2CCCc2ccc(cc2)CCC3)CC(=O)Cc2ccc(c3nsnc23)C1 show?
OUTPUT: 401

INPUT: absorption maximum lookup needed for FC(F)(F)c1cc2n(n1)[B-]1(c3ccccc3Oc3ccccc31)[n+]1ccc3ccccc3c1-2 , thanks.
OUTPUT: 375

INPUT: Bench note: what absorption maximum did Cc1ccc(-c2cc(-c3ccccc3)c(C#N)c(=S)[nH]2)cc1 show?
OUTPUT: 488

INPUT: Quick check: absorption maximum of C=Cc1cccc(OC)c1 ?
OUTPUT: 295

INPUT: Give the measured absorption maximum of CNC1=C2C=CC=[N+]2[B-](F)(F)n2cccc21 .
OUTPUT: 418.5

INPUT: Recorded absorption maximum of CC(C)[Si]1(C(C)C)c2cc(C=C(C#N)C#N)ccc2-c2ccc(N(C)C)cc21 , please.
OUTPUT: 480

INPUT: Which absorption maximum is listed for O=[N+]([O-])c1ccc(NCCN(Cc2c3ccccc3cc3ccccc23)c2ccc([N+](=O)[O-])cc2[N+](=O)[O-])c([N+](=O)[O-])c1 ?
OUTPUT: 355

INPUT: Value lookup for absorption maximum; key = Fc1ccc(-c2nc3n(c2-c2ccncc2)CCS3)cc1
OUTPUT: 328

INPUT: Recorded absorption maximum for O=C1Cc2ccc(cc2)CC(=O)Cc2ccc(c3nsnc23)C1 , please?
OUTPUT: 384

INPUT: Given Cc1ccccc1C1=C2C=c3c(oc4ccccc34)=[N+]2[B-](F)(F)n2c1cc1c3ccccc3oc12 , state its recorded absorption maximum.
OUTPUT: 586.5

INPUT: Endpoint output: absorption maximum of Cc1cc(C)c(B2c3cc(C(C)(C)C)cc4ccc5c6ccccc6c6cc(C(C)(C)C)cc2c6c5c34)c(C)c1 . Value?
OUTPUT: 424

INPUT: I'd like to know its absorption maximum. The compound in question is Cc1ccc(C2=C3C=CC(C#Cc4ccccc4)=[N+]3[B-](F)(F)n3c(C#Cc4ccccc4)ccc32)cc1
OUTPUT: 615

INPUT: What does the record list as absorption maximum for Cn1nc(-c2ccccc2)c2nc3cc(Cl)ccc3nc21 ?
OUTPUT: 428

INPUT: Recorded absorption maximum for CC1=N/C(=C\c2ccc(N(C)C)cc2)C(=O)N1C , please?
OUTPUT: 405

INPUT: Would you kindly share the measured absorption maximum for COc1cc(/C=C2/SC(=O)NC2=O)cc(OC)c1O ?
OUTPUT: 354

INPUT: Entry CC1=N/C(=C\c2ccccc2N(C)C)C(=O)N1C : reported absorption maximum = ?
OUTPUT: 395
